Biological target: HLA-A3 on CFPAC parental cells (Homo sapiens, HLA-A3 serotype, allele …, strain)

binder	binding result
HLAA3_3 (VHH) VHH: EVQLVESGGGLVQPGGSLRLSCAASGFNIYSYAMHWVRQAPGKGLEWVASVAPGSGYTYYADSVKGRFTISADTSKNTAYLQMNSLRAEDTAVYYCSRNKYYTAYYMDYWGQGTLVTVSS	binds
HLAA3_11 (VHH) VHH: EVQLVESGGGLVQPGGSLRLSCAASGFNIYSYGIHWVRQAPGKGLEWVAKVSPSSGYTYYADSVKGRFTISADTSKNTAYLQMNSLRAEDTAVYYCSRQYGYPYYFDYWGQGTLVTVSS	binds
HLAA3_5 (VHH) VHH: EVQLVESGGGLVQPGGSLRLSCAASGFNLSYYWMHWVRQAPGKGLEWVASIYPDGSYTWYADSVKGRFTISADTSKNTAYLQMNSLRAEDTAVYYCSRGTYFAMDYWGQGTLVTVSS	binds
HLAA3_9 (VHH) VHH: EVQLVESGGGLVQPGGSLRLSCAASGFNISTWLIHWVRQAPGKGLEWVAVVYPDSSYTYYADSVKGRFTISADTSKNTAYLQMNSLRAEDTAVYYCSRSWFSKSAMDYWGQGTLVTVSS	binds
HLAA3_8 (VHH) VHH: EVQLVESGGGLVQPGGSLRLSCAASGFNIYSYYIHWVRQAPGKGLEWVAKIYPDSGYTYYADSVKGRFTISADTSKNTAYLQMNSLRAEDTAVYYCSRSFSRYGYMDYWGQGTLVTVSS	binds
HLAA3_1 (VHH) VHH: EVQLVESGGGLVQPGGSLRLSCAASGFNVQGDGMHWVRQAPGKGLEWVAMVGPYSSYTYYADSVKGRFTISADTSKNTAYLQMNSLRAEDTAVYYCSRYSDGAFDYWGQGTLVTVSS	binds
HLAA3_2 (VHH) VHH: EVQLVESGGGLVQPGGSLRLSCAASGFNITKYSIHWVRQAPGKGLEWVAMVGPYSSYTYYADSVKGRFTISADTSKNTAYLQMNSLRAEDTAVYYCSRFYSSYAFDVWGQGTLVTVSS	binds
HLAA3_7 (VHH) VHH: EVQLVESGGGLVQPGGSLRLSCAASGFNVYYYWMHWVRQAPGKGLEWVASIYPDSDNTYYADSVKGRFTISADTSKNTAYLQMNSLRAEDTAVYYCSRGDYYYSYLDYWGQGTLVTVSS	binds
HLAA3_6 (VHH) VHH: EVQLVESGGGLVQPGGSLRLSCAASGFNIFGYYMHWVRQAPGKGLEWVAVVSPGSGYTNYADSVKGRFTISADTSKNTAYLQMNSLRAEDTAVYYCSRALYSAYFAYWGQGTLVTVSS	binds

The origin of these recorded values is paper PMC9808734.
